experiment: purified protein yield per well (BCA); higher = higher soluble expression
For each of the sequences below, state its purified protein yield per well.

q: Determine from records and report purified protein yield per well for VANPYQRGPAPTEASVTAKLGPFAIASKKVGAFSHPGIREGTVYYPTDTSQGTFGAIAVAPGFVSPEALVSWYGPRLASQGFVVMTLEITTGFDLPEARAAQLLSALDFMKKDNTIKNRIDPNRLAVMGWSMGGGGTLRAAQQSASLKAAIPLAPWDLGMDWSNVRVPTMIIGGDNDFVASPGFHAEPFYTQLADEKAYLELENAGHFTFTSDNNTIAKYAISWMKRWVDEDTRYTQFLCPPPPAPSPTIQKYRQTCPY [DP046]
a: < 25 µg

q: Determine from records and report purified protein yield per well for WTPDPEPPGPVPEPCNTDCSQGPYPTTGSVEANMGPFSISSVSVPWTVSGFGGGTIYYPSSGTTGSLGAIALIPGFLGPEWTISAWGERLASHGFIVITVATNAVTDQPDSRATQLSRALDHVIIESGSTSSPIYGMVDPNRLGAMGISMGGGGTLKLTSDRTLSAAVPMVPWYLGFNDFESIDTPTLIIGCENDTIAPVALHSIPFYNAISDDVDKAYLEMNNGSHGCVAGLTNVDILGKYAVSWMKRFIDNDQRYDQFLCGPNHTAPFSVSDYRDNCDY [DP096]
a: < 25 µg

q: Determine from records and report purified protein yield per well for AENPHQRGPNPTVAALEAAAGPFAVAKVSVPGGHGFGGGTITYPTDTSQGTFGAVAVSPGFIESEGAIAWFGPRLASHGFVVITISTNGLFDQPDARGAQLLAALDYVTKSSAVRDRVDPARLAVMGHSMGGGGALYATAQRPALKASIPLLAWSNTKSWGSVRVPTMVIGAENDFIASVGSHSEPFYQSLGGEKAYLEMNDADHFVTNSPTPTVGKLTVSWLKRFMDNDTRYDQFLCPAPPVGGPISEYRDTCPYI [DP017]
a: 30 µg
